The entries below are paired with their reported αvβ5 signal.
- tested on: T1, integrin αVβ5 (UniProt P06756 31-992; P18084 24-719)
- T1 construct: Coated on the ELISA plate
- T1 sequence (P06756 31-992, chain 1 of 2): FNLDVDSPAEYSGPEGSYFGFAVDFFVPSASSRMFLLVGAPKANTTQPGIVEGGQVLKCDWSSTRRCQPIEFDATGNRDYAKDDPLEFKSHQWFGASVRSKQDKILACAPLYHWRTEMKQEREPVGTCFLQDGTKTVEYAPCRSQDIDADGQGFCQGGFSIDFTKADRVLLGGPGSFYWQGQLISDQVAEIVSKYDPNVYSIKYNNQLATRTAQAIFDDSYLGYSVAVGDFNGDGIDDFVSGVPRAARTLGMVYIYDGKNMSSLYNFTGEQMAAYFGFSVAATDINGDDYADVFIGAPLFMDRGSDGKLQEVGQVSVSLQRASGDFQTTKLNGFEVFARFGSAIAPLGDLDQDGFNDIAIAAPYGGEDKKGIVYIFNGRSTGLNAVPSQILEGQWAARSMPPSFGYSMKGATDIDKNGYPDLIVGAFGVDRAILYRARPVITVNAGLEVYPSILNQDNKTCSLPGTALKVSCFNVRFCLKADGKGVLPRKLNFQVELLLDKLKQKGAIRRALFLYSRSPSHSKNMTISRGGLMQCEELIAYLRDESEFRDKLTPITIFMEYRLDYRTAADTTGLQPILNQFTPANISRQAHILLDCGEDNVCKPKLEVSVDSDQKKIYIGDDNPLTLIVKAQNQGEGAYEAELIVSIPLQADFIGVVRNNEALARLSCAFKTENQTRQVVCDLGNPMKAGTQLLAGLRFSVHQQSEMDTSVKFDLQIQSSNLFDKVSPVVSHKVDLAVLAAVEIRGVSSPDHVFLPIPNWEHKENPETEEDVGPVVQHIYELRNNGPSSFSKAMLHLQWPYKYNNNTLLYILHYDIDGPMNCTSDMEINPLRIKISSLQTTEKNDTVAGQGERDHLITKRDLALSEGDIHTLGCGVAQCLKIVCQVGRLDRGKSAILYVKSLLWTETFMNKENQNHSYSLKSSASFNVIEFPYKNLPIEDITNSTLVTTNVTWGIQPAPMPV
- T1 sequence (P18084 24-719, chain 2 of 2): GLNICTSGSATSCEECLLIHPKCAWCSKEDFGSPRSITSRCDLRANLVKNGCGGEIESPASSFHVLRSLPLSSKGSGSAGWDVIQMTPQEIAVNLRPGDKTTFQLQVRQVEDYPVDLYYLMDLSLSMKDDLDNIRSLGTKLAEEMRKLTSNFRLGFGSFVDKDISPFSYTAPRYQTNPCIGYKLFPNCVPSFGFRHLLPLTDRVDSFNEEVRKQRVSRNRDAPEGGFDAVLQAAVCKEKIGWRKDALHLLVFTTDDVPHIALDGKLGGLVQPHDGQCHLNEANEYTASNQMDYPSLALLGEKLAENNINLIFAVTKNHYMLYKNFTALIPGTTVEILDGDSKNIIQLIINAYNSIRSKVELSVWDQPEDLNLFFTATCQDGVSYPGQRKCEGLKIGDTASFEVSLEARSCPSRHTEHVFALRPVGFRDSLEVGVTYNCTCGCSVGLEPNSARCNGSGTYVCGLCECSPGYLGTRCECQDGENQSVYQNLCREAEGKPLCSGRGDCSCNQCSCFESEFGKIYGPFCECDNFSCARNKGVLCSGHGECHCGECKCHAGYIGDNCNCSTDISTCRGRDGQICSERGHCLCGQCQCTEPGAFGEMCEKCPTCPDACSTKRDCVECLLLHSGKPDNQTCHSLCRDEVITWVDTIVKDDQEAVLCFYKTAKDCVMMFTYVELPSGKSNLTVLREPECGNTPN
- assay info: phage ELISA, coated integrin, anti-M13-HRP

| binder | αvβ5 signal [OD] |
| --- | --- |
| M13 phage pKK110 displaying MICA α3 domain with tight loop 1 insert T-5.1 (designed binder, also called 1-T-5.1; not shown: C-terminal portion of M13 gene III protein, fused at codon position 198) TVPPMVNVTRGDTFTQSCRASGFYPWNITLSWRQDGVSLSHDTQQWGDVLPDGNGTYQTWVATRICQGEEQRFTCYMEHSGNHSTHPVPSGK | 2.56 |
| M13 phage pKK105 displaying MICA α3 domain with loop 3 insert 3.3sp (designed binder, also called 3-3.3sp; not shown: C-terminal portion of M13 gene III protein, fused at codon position 198) TVPPMVNVTRSEASEGNITVTCRASGFYPWNITLSWRQDGVSLSHDTQQWGDVLPDGNGTYQTWVATRISGGSGGGSRVPRGDSDLTSGGSGGGCYMEHSGNHSTHPVPSGK | 1.11 |
| M13 phage pKK101 displaying MICA α3 domain with loop 1 insert 3.3sp (designed binder, also called 1-3.3sp; not shown: C-terminal portion of M13 gene III protein, fused at codon position 198) TVPPMVNVTSGGSGGGSRVPRGDSDLTSGGSGGGVTCRASGFYPWNITLSWRQDGVSLSHDTQQWGDVLPDGNGTYQTWVATRICQGEEQRFTCYMEHSGNHSTHPVPSGK | 1.23 |
| M13 phage pKK91 displaying MICA α3 domain with loop 3 insert His10sp (designed binder, also called 3-His10; not shown: C-terminal portion of M13 gene III protein, fused at codon position 198) TVPPMVNVTRSEASEGNITVTCRASGFYPWNITLSWRQDGVSLSHDTQQWGDVLPDGNGTYQTWVATRISGGSGGGSHHHHHHHHHHSGGSGGGCYMEHSGNHSTHPVPSGK | 0.078 |
| M13 phage pKK111 displaying MICA α3 domain with tight loop 1 insert T-5.3 (designed binder, also called 1-T-5.3; not shown: C-terminal portion of M13 gene III protein, fused at codon position 198) TVPPMVNHLARGDDLTYCRASGFYPWNITLSWRQDGVSLSHDTQQWGDVLPDGNGTYQTWVATRICQGEEQRFTCYMEHSGNHSTHPVPSGK | 0.657 |
| M13 phage pKK98 displaying MICA α3 domain with loop 1 insert 5.3 (designed binder, also called 1-5.3; not shown: C-terminal portion of M13 gene III protein, fused at codon position 198) TVPPMVNVTHLARGDDLTYVTCRASGFYPWNITLSWRQDGVSLSHDTQQWGDVLPDGNGTYQTWVATRICQGEEQRFTCYMEHSGNHSTHPVPSGK | 1.48 |
